tested on: UACC-62 melanoma; experiment: NCI tumour cell line growth inhibition, 48 h; in the data active = GI50 below about 0.43 µM; inactive = the rest
Reply using exactly one outcome from T = active, F = inactive

Problem: State the result this test recorded for c1cc(C2CCCCC2)ccc1OCCCCCCN1CCNCC1 .
Result: F

Problem: State the result this test recorded for OCCCCC#Cc1ccccc1C#Cc1ccccc1F .
Result: F

---

system: MDA-MB-435
Reply using exactly one outcome from 1.0 for active, 0.0 for inactive

Solved cases (2 shown):
CC/C=C\C/C=C\C[C@H](O)C/C=C1/C(=O)C=C[C@H]1C/C=C\CCC(=O)OC :: 0.0
O=C1c2ccccc2-c2c1c1ccc([N+](=O)[O-])cc1c(=O)n2CCNCCCNCCn1c2c(c3ccc([N+](=O)[O-])cc3c1=O)C(=O)c1ccccc1-2 :: 0.0

Problem: State the result this test recorded for c1cc(C2CCCCC2)ccc1OCCCCCCN1CCNCC1 .
Result: 0.0

Problem: State the result this test recorded for COc1ccc(-c2nsc3c2NC(=O)CC3c2ccc3c(c2)OCO3)cc1 (stereo not given) .
Result: 1.0

---

system: SF-268 CNS; experiment: NCI tumour cell line growth inhibition, 48 h; in the data active = GI50 below about 0.43 µM; inactive = the rest
Reply using exactly one outcome from 1 for active, 0 for inactive

CC/C=C\C/C=C\C[C@H](O)C/C=C1/C(=O)C=C[C@H]1C/C=C\CCC(=O)OC :: 0

Problem: State the result this test recorded for OCc1cccc(-c2ccc3ncc(-c4nc(NC5CC5)ncc4F)n3c2)c1 .
Result: 1

Problem: State the result this test recorded for CN(C)/C=C/c1nnnn1-c1ccc(Cl)cc1 .
Result: 0

Problem: State the result this test recorded for NS(=O)(=O)c1ccc(C2C3=C(CCCC3=O)OC3=C2C(=O)c2ccccc2C3=O)cc1 (centres undefined) .
Result: 1

Problem: State the result this test recorded for CN(C)C(=S)NN=C(c1ccccn1)c1ccccn1 .
Result: 1

Problem: State the result this test recorded for CCCCCCCCCCCCCCCC(=O)OCC1OC(n2cnc3c(=S)nc(N)[nH]c32)C(OC(=O)CCCCCCCCCCCCCCC)C1OC(=O)CCCCCCCCCCCCCCC (centres undefined) .
Result: 0

---

I'd appreciate it if you could supply TGI values for the items below.
tested on: OVCAR-3 ovarian; test: NCI tumour cell line growth inhibition, 48 h

Check out these entries, answers already filled in.
CSc1ccc(-c2cc(-c3ccc(NC(=O)CCCN4CCCC4)cc3)nc(-c3ccc(NC(=O)CCCN4CCCC4)cc3)c2)cc1 :: 14.6 µM
NC(N)=N/N=C/c1c(-c2cccs2)nc2sccn12 :: 18.1 µM
Cc1cc(N=Cc2c(CO)cnc(C)c2O)c(N=Cc2c(CO)cnc(C)c2O)cc1C.[Zn] :: > 100 µM

Below is a list of molecules. For each, state its recorded TGI.
1. CCOP(=O)(OCC)/C(=C\N1C(=O)CC(=O)NC1=S)C(=O)OC
2. Cn1ccnc1C(c1nccn1C)C(C)(C)[N+](=O)[O-]
3. O=C(Nc1ncc(Cc2ccccc2)s1)c1ccc2c(c1)OCCCO2
4. CN(C)CCCNc1c2ccccc2nc2cccc([N+](=O)[O-])c12
5. Oc1ccc2c(c1)CC[N+]1=C2CCC2CCCC21 (stereo not given)
6. CCOC(=O)CCc1c(C(=O)OCC)[nH]c(/C=C2\NC(=O)C(C)=C2CC)c1C
7. CS(=O)(=O)OCCN1CCN(C(=O)c2cccc3c(Nc4ccc(S(N)(=O)=O)cc4)c4ccccc4nc23)CC1

Result:
1. > 100 µM
2. > 100 µM
3. > 100 µM
4. 0.0673 µM
5. > 100 µM
6. 49.6 µM
7. > 100 µM
